The measured values listed here are drawn from ChEMBL document CHEMBL1800002.

biological target: ATP-dependent translocase ABCB1 (Homo sapiens, UniProt P08183); assay: Drug transport assessed as MDR1 -mediated transcellular transport ratio by P-gp transport assay; type: ADME
Sequence (P08183 whole entry): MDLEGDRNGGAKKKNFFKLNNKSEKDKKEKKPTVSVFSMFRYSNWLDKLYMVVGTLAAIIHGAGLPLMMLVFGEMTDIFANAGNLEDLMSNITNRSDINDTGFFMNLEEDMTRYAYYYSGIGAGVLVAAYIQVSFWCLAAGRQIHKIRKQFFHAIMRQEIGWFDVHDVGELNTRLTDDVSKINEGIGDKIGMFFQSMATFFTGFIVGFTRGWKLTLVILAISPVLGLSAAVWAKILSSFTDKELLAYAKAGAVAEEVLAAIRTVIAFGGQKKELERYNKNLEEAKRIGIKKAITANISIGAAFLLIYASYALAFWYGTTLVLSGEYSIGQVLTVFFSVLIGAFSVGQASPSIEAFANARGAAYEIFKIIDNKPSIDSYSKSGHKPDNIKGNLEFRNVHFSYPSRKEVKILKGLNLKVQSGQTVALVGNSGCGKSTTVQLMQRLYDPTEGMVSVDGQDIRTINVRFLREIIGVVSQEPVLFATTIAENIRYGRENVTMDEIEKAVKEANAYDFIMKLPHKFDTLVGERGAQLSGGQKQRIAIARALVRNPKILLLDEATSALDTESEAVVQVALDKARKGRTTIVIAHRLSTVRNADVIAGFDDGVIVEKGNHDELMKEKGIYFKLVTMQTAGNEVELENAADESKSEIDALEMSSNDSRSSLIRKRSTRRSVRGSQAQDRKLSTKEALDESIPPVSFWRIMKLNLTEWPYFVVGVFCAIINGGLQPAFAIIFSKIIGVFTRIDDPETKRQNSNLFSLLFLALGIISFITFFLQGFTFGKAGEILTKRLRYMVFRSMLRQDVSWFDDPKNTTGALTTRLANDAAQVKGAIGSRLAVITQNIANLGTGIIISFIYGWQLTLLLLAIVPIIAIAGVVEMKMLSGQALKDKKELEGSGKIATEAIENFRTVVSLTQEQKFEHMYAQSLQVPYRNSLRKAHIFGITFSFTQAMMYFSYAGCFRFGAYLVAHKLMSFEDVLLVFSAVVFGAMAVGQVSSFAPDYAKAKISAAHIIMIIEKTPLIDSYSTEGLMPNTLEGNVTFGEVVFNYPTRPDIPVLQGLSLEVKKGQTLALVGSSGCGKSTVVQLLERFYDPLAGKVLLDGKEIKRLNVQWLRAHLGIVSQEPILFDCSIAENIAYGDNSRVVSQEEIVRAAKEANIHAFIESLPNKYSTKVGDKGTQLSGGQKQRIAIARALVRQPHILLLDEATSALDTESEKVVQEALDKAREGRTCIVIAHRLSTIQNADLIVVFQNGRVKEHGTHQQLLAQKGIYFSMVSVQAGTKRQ
assay-readout: Ratio

These recorded examples may help you get a feel for the data.
smiles-entry	assay-readout	test-value
C[C@@H](NC(=O)C1(NC(=O)c2cncc(F)c2)CC1)c1ccc(-n2nc(Cl)c3ccccc32)cc1F	Ratio	7.5
C[C@@H](NC(=O)C1(NC(=O)c2cncs2)CC1)c1ccc(-n2nc(Cl)c3ccccc32)cc1F	Ratio	2.8

(I) C[C@@H](NC(=O)C1(NC(=O)c2cncc(Cl)c2)CC1)c1ccc(-n2nc(Cl)c3ccccc32)cc1F
(II) COc1cncc(C(=O)NC2(C(=O)N[C@H](C)c3ccc(-n4nc(Cl)c5ccccc54)cc3F)CC2)c1
# compare Ratio for I vs II ; return the one with the smaller value Reply briefly: the label of your chosen item.
I
